# TARGET UNDER TEST: HLA-A*0201 (human)
# PROTOCOL TEXT: competition with 125I-labelled standard peptide for purified HLA, gel filtration
# STUDY CONDITIONS: scale: ratio
METRIC NAME: binding affinity ratio

# count of solved cases: 3
Request: Query: binding affinity ratio; subject: LAKELKFVTL (modifications not checked) [… (PAP, position 31, 10 amino acids)]
Response: 0.0002

Request: Proceed to KVVHYRKWI (modifications not checked) [… (PSA, position 241, 9 amino acids)]
Response: 0.0001

Request: # iterate: SVTWIGAA (modifications not checked) [PSA peptide SVTWIGAA (position 7, 8 amino acids)]
Response: 0.0001

P. KVVHYRKWI (modifications not checked) [… (Kallikrein, position 245, 9 amino acids)]
Q. KVTKFMLCA (modifications not checked) [… (PSA, position 187, 9 amino acids)]
R. SVELAHYDVL (modifications not checked) [PSM peptide … (position 107, 10 amino acids)]
Request: Let's sort these by binding affinity ratio, smallest first. Go ahead? Field: ranking. Enter the labels in the order requested.
Response: P, R, Q
(P: 0.0001, R: 0.0002, Q: 0.002)

A. KVLGLPTQEPA (modifications not checked) [… (Kallikrein, position 137, 11 amino acids)]
B. SLLKNRFL (modifications not checked) [PSA peptide SLLKNRFL (position 100, 8 amino acids)]
Request: Lab note: check whether A or B shows the higher recorded binding affinity ratio. Indicate which entry you chose by stating its label.
Response: B
(B: 0.002, A: 0.0001)
